B1: TPR 5TU (parent)
chain: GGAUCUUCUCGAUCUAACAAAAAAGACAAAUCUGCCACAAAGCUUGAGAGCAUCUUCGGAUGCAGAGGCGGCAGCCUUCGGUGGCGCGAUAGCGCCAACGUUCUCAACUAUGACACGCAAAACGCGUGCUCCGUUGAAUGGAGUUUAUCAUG

# Variants of: B1
# Measurement Notes: polymerase ribozyme fitness, log enrichment relative to wild type (log ratio); higher = more active; in vitro selection for triplet polymerase activity
This sample holds only a part of the variants without activity.
Property Name: polymerase ribozyme fitness (log ratio)

The cases that follow already have their polymerase ribozyme fitness (log ratio) on record.
* G11U C32U C93G A107G | ≤ -4.2
* A26C G84C C108G G133U | ≤ -4.2
* C76G G86A | ≤ -4.2

Lookup: Identify measured polymerase ribozyme fitness (log ratio) associated with A22C A39C U53A G68A A91U U146A
Found: ≤ -4.2

Lookup: Identify measured polymerase ribozyme fitness (log ratio) associated with G50U A52C A64C G92C
Found: ≤ -4.2

Lookup: Identify measured polymerase ribozyme fitness (log ratio) associated with A12U A49C G100U U146G
Found: ≤ -4.2
